System Name: HDAC1 (Homo sapiens (Human), UniProt Q13547)
Sequence (Q13547 whole entry): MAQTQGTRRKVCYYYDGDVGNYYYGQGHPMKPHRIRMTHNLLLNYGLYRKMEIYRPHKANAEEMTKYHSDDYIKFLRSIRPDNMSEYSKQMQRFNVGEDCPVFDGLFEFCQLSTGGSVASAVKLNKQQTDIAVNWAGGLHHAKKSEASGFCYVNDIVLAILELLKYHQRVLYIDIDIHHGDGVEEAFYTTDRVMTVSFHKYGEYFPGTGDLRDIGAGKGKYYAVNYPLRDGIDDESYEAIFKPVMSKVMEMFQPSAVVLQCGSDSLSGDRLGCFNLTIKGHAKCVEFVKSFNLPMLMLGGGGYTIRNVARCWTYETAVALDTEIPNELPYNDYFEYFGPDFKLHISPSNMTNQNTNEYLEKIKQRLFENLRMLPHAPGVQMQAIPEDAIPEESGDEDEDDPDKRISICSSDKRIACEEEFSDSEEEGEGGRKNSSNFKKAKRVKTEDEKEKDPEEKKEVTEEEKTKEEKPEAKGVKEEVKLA
Test Summary: Reporter displacement assay (HDAC1)
Settings: reporter probe displacement, Cheng Prusoff
pKd: −log10 of the molar value.
Observed Property: pKd

Reference set, count: 5
Compound	Value Reported
Nc1ccc(-c2ccc(C(F)(F)F)cc2)cc1NC(=O)N1Cc2ccncc2C1	5.30 to 6.30
Nc1ccc(-c2ccc(F)cc2)cc1NC(=O)N1CCC2(CCOC2)CC1	> 7.00
COC(=O)N1CC2CN(C(=O)Nc3cc(-c4ccc(F)cc4)ccc3N)CC2C1 (stereo not drawn)	6.30 to 7.00
Nc1ccc(-c2ccc(C(F)(F)F)cc2F)cc1NC(=O)N1Cc2ccncc2C1	5.30 to 6.30
N#Cc1ccc(-c2ccc(N)c(NC(=O)N3Cc4ccncc4C3)c2)cc1	6.30 to 7.00

Problem: Using the record for CNC(=O)N1CC2CN(C(=O)Nc3cc(-c4ccc(F)cc4)ccc3N)CC2C1 (stereo not drawn) , report its pKd.
Result: > 7.00

Problem: What do you get for Nc1ccc(-c2ccoc2)cc1NC(=O)N1Cc2ccncc2C1 ?
Result: > 7.00

Problem: Check Nc1ccc(-c2ccncc2)cc1NC(=O)N1CC2CCC(C1)O2 too.
Result: < 5.30

Problem: Now this one: Nc1ccc(-c2ccc(Cl)cc2)cc1NC(=O)N1Cc2ccncc2C1
Result: > 7.00

Problem: Continue with CC(C)(C)OC(=O)N1CC2CN(C(=O)Nc3cc(-c4ccc(F)cc4)ccc3N)CC2C1 (stereo not drawn)
Result: 6.30 to 7.00

Problem: Again, but for Nc1ccc(-c2ccc(F)cc2)cc1NC(=O)N1CC2(CCNCC2)C1
Result: 5.30 to 6.30

Problem: For Nc1ccc(-c2ccc(C(F)(F)F)cn2)cc1NC(=O)N1Cc2ccncc2C1 then?
Result: 5.30 to 6.30

Problem: How about this compound: Nc1ccc(-c2ccc(F)cc2)cc1NC(=O)N1CCC2(CC1)COC2
Result: > 7.00
